Hey, just so you know, these numbers are from paper PMC7320011.

Test system: human cervical carcinoma (HeLa) cells
Assay: (Photo-)cytotoxicity on 2D cell monolayers, HeLa
Assay type: cell-based
Settings: 540 nm, 1-3 as chloride salts, read-out: IC50 540 nm (40 min, 9.5 J cm-2)
ENDPOINT_LABEL: pIC50
Quick note: pIC50 means taking -log10 of the concentration in moles per liter.

{"COMPOUND_SMILES": "COc1ccc(/C=C/c2ccnc(-c3cc(/C=C/c4ccc(OC)cc4)ccn3)c2)cc1.COc1ccc(/C=C/c2ccnc(-c3cc(/C=C/c4ccc(OC)cc4)ccn3)c2)cc1.COc1ccc(/C=C/c2ccnc(-c3cc(/C=C/c4ccc(OC)cc4)ccn3)c2)cc1.F[P-](F)(F)(F)(F)F.F[P-](F)(F)(F)(F)F.[Ru+2]", "pIC50": 4.95}

// returns pIC50 for COc1ccc(/C=C/c2ccnc(-c3cc(/C=C/c4ccc(OC)cc4)ccn3)c2)cc1.COc1ccc(/C=C/c2ccnc(-c3cc(/C=C/c4ccc(OC)cc4)ccn3)c2)cc1.F[P-](F)(F)(F)(F)F.F[P-](F)(F)(F)(F)F.[Ru+2].c1ccc(-c2ccccn2)nc1 with human cervical carcinoma (HeLa) cells; value = 5.10

// returns pIC50 for CN(C)c1ccc(/C=C/c2ccnc(-c3cc(/C=C/c4ccc(N(C)C)cc4)ccn3)c2)cc1.CN(C)c1ccc(/C=C/c2ccnc(-c3cc(/C=C/c4ccc(N(C)C)cc4)ccn3)c2)cc1.F[P-](F)(F)(F)(F)F.F[P-](F)(F)(F)(F)F.[Ru+2].c1ccc(-c2ccccn2)nc1 with human cervical carcinoma (HeLa) cells; value = 4.97
